Each recorded value in this set is attributed to paper PMC8989888.

// pIC50 collected for Cathepsin S (Homo sapiens)
Scale: pIC50 equals -log10([C]), with [C] in mol/L.

Ask: Using the record for CC(C)C[C@H](NC(=O)OCc1cccc(C(F)(F)F)c1)C(=O)N[C@@H](C[C@@H]1CCNC1=O)C(O)S(=O)(=O)O (some centres unmarked) , report its pIC50.
Reply: 7.52

For the next question, use this compound.
Ask: Using the record for CC(C)C[C@H](NC(=O)OCc1ccccc1Cl)C(=O)N[C@@H](C[C@@H]1CCNC1=O)C(O)S(=O)(=O)O (some centres unmarked) , report its pIC50.
Reply: 8.22

* * *

# target of assay: SARS-CoV-2 3CL protease (Severe acute respiratory syndrome coronavirus 2)
# Type: biochemical
# Set-up: unit not given here
# study conditions: Conc 200 µM; mean response (inhibition) of dose-response curve
Recorded measurements of Avg, one per entry
// print number alone

Some solved cases for reference:
Ask: Using the record for O=C(CCl)c1ccc(F)c(C(=O)CCl)c1 , report its Avg.
Reply: 79.1

Ask: Using the record for O=C(CCl)N1CCN(Cc2ccsc2)CC1 , report its Avg.
Reply: 96.9

Ask: Using the record for Cc1ccccc1CN1CCCN(C(=O)CCl)CC1 , report its Avg.
Reply: 99.5

Ask: Using the record for CSc1cc(C(=O)CCl)ccc1NC(C)=O , report its Avg.
Reply: 107.3

Ask: Using the record for CN(C)C(=O)c1csc(C(=O)CCl)c1 , report its Avg.
Reply: 99.3

Continuing:
Ask: Using the record for Cc1cnc(=S)[nH]c1 , report its Avg.
Reply: 108.2

Ask: Using the record for O=C(CCl)N1CCc2[nH]c3ccccc3c2C1 , report its Avg.
Reply: 98.1

Ask: Using the record for N#Cc1ccc(S)nc1 , report its Avg.
Reply: 113.2

Ask: Using the record for NC(=O)c1csc(C(=O)CCl)c1 , report its Avg.
Reply: 92.5

Ask: Using the record for CN(c1ccc(C(=O)CCl)cc1)S(C)(=O)=O , report its Avg.
Reply: 99.3

Ask: Using the record for Cc1ccc(CNC(=O)n2ccnc2)cc1 , report its Avg.
Reply: 104
